B1: ZNF263 (parent)
chain: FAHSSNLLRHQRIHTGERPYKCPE

variants of: B1; assay: protein stability index of a GFP-peptide fusion (GPS, HEK-293T) (PSI 1-6); higher = more stable; conditions: c terminus: a fixed tail appended;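 further: lentivirally expressed fusions sorted by FACS into six bins by GFP to DsRed ratio, PSI derived from sequencing read proportions per bin multiplied by bin number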
Tick T if protein stability index is 2 or greater. Tick F if protein stability index is less than 2.

Sample answers from the record:
Task: Kindly determine if protein stability index recorded for S5K is above or exactly 2.
Result: F

Task: Kindly determine if protein stability index recorded for L7H is above or exactly 2.
Result: T

Task: Reported protein stability index at or above 2? E24M
Result: T

Task: Form field: protein stability index at least 2? Entry: A2C
Result: T

Task: Entry C22A : is its protein stability index no less than 2?
Result: T

Task: Could you please find out whether I13H has protein stability index that meets 2 or exceeds it?
Result: T

Task: protein stability index >= 2 for K21Y ?
Result: T

Task: Determine whether this variant has protein stability index no lower than 2: H14V
Result: T

***
Task: Reported protein stability index at or above 2? H10V
Result: F

Task: Hi team, for A2F , is the recorded protein stability index at or above 2?
Result: T

Task: Confirm if protein stability index reported for the variant E17W is 2 or above.
Result: T

Task: Test whether the variant Y20A records protein stability index of 2 or higher.
Result: T

Task: Item S4N with protein stability index of 2 or above?
Result: T

Task: Hi, just wondering whether R9N shows protein stability index of 2 or higher.
Result: T

Task: Can H14F be said to have protein stability index at or above 2?
Result: T

Task: Evaluate T15R : protein stability index at minimum 2?
Result: T

Task: Please check the record R12S and state if its protein stability index is at or above 2.
Result: T

Task: Textbook exercise: given the entry R9S , state whether its protein stability index is greater than or equal to 2.
Result: T

Task: Assess whether reported protein stability index for Y20F sits at 2 or higher.
Result: T

Task: Assess whether reported protein stability index for E24L sits at 2 or higher.
Result: F
